# Lookup of reported melting point keyed by entry

CC(C)CNC(=O)c1ccc2c(=O)n(-c3ccccc3)c(SCc3ccc(C(F)(F)F)cc3)nc2c1 [Compound 14] = 214.7 to 216.6 °C
CC(C)CNC(=O)c1ccc2c(=O)[nH]c(SCc3ccc(C(F)(F)F)cc3)nc2c1 [Compound 46] = 262.8 to 264.6 °C

Task: Supply recorded melting point for CC(C)(C)CNC(=O)c1ccc2c(=O)[nH]c(SCc3ccccc3OC(F)(F)F)nc2c1 [Compound 43] here.
Result: 220.9 to 221.9 °C

Task: Supply recorded melting point for CC(C)CNC(=O)c1ccc2c(=O)n(-c3ccccc3)c(SCc3ccccc3Cl)nc2c1 [Compound 12] here.
Result: 230.8 to 232.7 °C
